The measured values listed here are drawn from ChEMBL document CHEMBL1158501.

// reported pIC50 for each item listed
System: SW480
Assay: Inhibition of human SW480 cells after 48 hrs
Assay type: functional, cell-based
Details: SW480, 48 h
The read-out pIC50 is expressed as -log10 of concentration in moles per litre.

{"structureAsSmiles": "O=C(Nc1nonc1NC(=O)c1ccccc1C(F)(F)F)c1ccccc1C(F)(F)F", "pIC50": 4.05}

Item under review: O=C(Nc1nonc1NC(=O)c1c(F)c(F)c(F)c(F)c1F)c1c(F)c(F)c(F)c(F)c1F . Reported pIC50?
4.76

###

Readings of pIC50 for the listed molecules
Test system: SW480
Test: Inhibition of human SW480 cells after 48 hrs
Type: functional, cell-based
Conditions: SW480, 48 h
The read-out pIC50 is expressed as -log10 of concentration in moles per litre.

Here is how some molecules turned out for pIC50.
{"structureAsSmiles": "O=C(Nc1nonc1NC(=O)c1ccc(F)cc1)c1ccc(F)cc1", "pIC50": 5.00}
{"structureAsSmiles": "O=C(Nc1nonc1NC(=O)c1ccccc1)c1ccccc1", "pIC50": 3.86}
{"structureAsSmiles": "O=C(Nc1nonc1NC(=O)c1ccc(Cl)c(Cl)c1)c1ccc(Cl)c(Cl)c1", "pIC50": 4.40}

Give SW480 pIC50 for O=C(Nc1nonc1NC(=O)c1ccc(Cl)cc1)c1ccc(Cl)cc1
5.10

Item: O=C(Nc1nonc1NC(=O)c1ccc(C(F)(F)F)cc1)c1ccc(C(F)(F)F)cc1 Test system: SW480 Read-out: pIC50 Value: ?
4.95

Please tell me: pIC50 of O=C(Nc1nonc1NC(=O)c1ccc(I)cc1)c1ccc(I)cc1 , system SW480?
5.70

Form field: pIC50 recorded for O=C(Nc1nonc1NCc1ccc(C(F)(F)F)cc1)c1ccc(C(F)(F)F)cc1 with SW480 (enter value)
4.73

###

System: SW480
Assay: Inhibition of human SW480 cells after 48 hrs
Format: functional, cell-based
Settings: SW480, 48 h
propertyName: pIC50
In simple prose, pIC50 is minus the logarithm base ten of a concentration in moles per litre.

Here are 4 compounds together with their reported answers.
{"structureAsSmiles": "O=C(CCl)Nc1nonc1NC(=O)CCl", "pIC50": 5.13}
{"structureAsSmiles": "FC(F)(F)c1ccc(CNc2nonc2NCc2ccc(C(F)(F)F)cc2)cc1", "pIC50": 4.64}
{"structureAsSmiles": "O=C(Nc1nonc1NC(=O)c1ccc(Br)cc1)c1ccc(Br)cc1", "pIC50": 5.40}
{"structureAsSmiles": "COc1cccc(C(=O)Nc2nonc2NC(=O)c2cccc(OC)c2)c1", "pIC50": 4.15}

Let's switch to this compound now.
# pIC50 lookup, item O=C(Nc1nonc1NC(=O)c1cc(C(F)(F)F)cc(C(F)(F)F)c1)c1cc(C(F)(F)F)cc(C(F)(F)F)c1
4.97

###

System: SW480
Assay: Inhibition of human SW480 cells after 48 hrs
Format: functional, cell-based
Conditions: SW480, 48 h
propertyName: IC50

Please review the entries below; each comes with its answer.
{"structureAsSmiles": "O=C(Nc1cscc1NC(=O)c1ccc(C(F)(F)F)cc1)c1ccc(C(F)(F)F)cc1", "IC50": "> 8 µM"}
{"structureAsSmiles": "O=C(Nc1nonc1NC(=O)C(Cl)(Cl)Cl)C(Cl)(Cl)Cl", "IC50": "> 200 µM"}

With those in mind, consider the next compound.
I'd like to know its IC50. The compound in question is O=C(Nc1nonc1NC(=O)C1CCCC1)C1CCCC1
> 200 µM
